Biological target: alpha-1-receptor (Rattus norvegicus)
Construct: rat liver homogenates; from tissue; host or cells: rat liver homogenate
Sequence (P15823 1-515): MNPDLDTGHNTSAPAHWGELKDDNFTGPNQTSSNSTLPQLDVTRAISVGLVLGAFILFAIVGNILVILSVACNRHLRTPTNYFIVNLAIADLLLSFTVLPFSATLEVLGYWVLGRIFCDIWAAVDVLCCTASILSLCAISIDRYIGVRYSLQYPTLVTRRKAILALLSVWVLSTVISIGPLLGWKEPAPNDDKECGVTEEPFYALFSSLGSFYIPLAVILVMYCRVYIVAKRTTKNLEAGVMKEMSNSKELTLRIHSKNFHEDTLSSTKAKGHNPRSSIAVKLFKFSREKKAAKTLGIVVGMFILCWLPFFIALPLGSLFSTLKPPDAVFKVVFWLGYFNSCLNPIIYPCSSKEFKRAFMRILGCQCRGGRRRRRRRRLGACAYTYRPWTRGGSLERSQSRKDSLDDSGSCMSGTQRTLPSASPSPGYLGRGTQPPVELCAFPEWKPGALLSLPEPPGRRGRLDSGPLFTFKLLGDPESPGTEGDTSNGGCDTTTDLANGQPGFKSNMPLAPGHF
Assay: Radioligand binding, alpha-1 adrenoceptor, rat liver homogenates, [3H]-prazosin
Observed property: pKi
On this scale, pKi is minus log10 of a concentration expressed in M (mol/L).

### Prompt Entry under review: COC(=O)[C@H]1[C@H]2C[C@H]3c4[nH]c5ccccc5c4CCN3C[C@H]2CC[C@@H]1O [Rauwolscine, reference compound] . Reported pKi?
### Response 6.41

###

Molecular target: alpha-1-receptor (Rattus norvegicus)
Construct: rat liver homogenates; from tissue; host or cells: rat liver homogenate
Sequence (P15823 1-515): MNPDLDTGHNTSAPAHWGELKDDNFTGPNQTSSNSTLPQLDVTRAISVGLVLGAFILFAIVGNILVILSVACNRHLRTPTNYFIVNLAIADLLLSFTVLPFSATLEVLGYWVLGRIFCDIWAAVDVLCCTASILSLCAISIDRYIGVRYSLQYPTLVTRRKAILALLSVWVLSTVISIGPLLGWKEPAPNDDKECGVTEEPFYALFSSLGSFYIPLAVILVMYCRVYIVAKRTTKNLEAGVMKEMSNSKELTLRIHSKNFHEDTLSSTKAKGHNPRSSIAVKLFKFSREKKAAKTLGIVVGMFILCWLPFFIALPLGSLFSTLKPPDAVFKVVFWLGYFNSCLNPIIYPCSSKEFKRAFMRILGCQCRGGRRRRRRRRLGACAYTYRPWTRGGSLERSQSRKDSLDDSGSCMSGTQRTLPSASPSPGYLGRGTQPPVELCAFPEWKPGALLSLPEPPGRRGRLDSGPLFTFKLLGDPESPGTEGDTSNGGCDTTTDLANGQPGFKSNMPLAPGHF
Assay: Radioligand binding, alpha-1 adrenoceptor, rat liver homogenates, [3H]-prazosin
Conditions: rat liver homogenates, [3H]-prazosin; read-out: Ki alpha-1
Structures can show the parent of a compound that is named as a salt.
Entries and their pKi values follow.
On this scale, pKi is minus log10 of a concentration expressed in M (mol/L).

Example entries begin here.
• CCN(CCc1ccco1)CC1CCCc2cc(OC)ccc21 (stereo not shown) [Example 43, hydrochloride] = 5.85
• CCN(CCc1cccs1)CC1CCCc2c1ccc1c2OCCO1 (stereo not shown) [Example 168, hydrochloride] = 6.08
• CCN(CCc1cccc(F)c1)CC1CCCc2c1ccc1c2OCO1 (stereo not shown) [Example 165, hydrochloride] = 6.34

# evaluate next
### Prompt Entry under review: Cc1cc(O)c(O)c2c1C(CN(C)CCc1cccc(F)c1)CCC2 (stereo not shown) [Example 34, hydrobromide] . Reported pKi?
### Response 6.48
